Where do the numbers come from? From paper PMC12406664.

experiment: Cyclic voltammetry, reduction potentials in DMSO (HDME, vs. Ag/AgCl); settings: 2.00 V/s, cathodic peak Icb, nitro reduction
Measurement Label: E(pIcb) (V)

{"Test Smiles": "CNC(=S)N/N=C(\\C)c1c(O)c2cc([N+](=O)[O-])ccc2oc1=O", "Unit Annotation": "V", "Observed Value": "−0.99"}
{"Test Smiles": "C/C(=N\\NC(=S)Nc1ccccc1)c1c(O)c2cc([N+](=O)[O-])ccc2oc1=O", "Unit Annotation": "V", "Observed Value": "−1.05"}
{"Test Smiles": "CCNC(=S)N/N=C(\\C)c1c(O)c2cc([N+](=O)[O-])ccc2oc1=O", "Unit Annotation": "V", "Observed Value": "−0.99"}

###

experiment: Cytotoxicity on cells (resazurin), BeWo; format: cell-based; conditions: human, BeWo trophoblast cells
Measurement Label: CC50 at 24 h (µM)
The figure you give is taken to be in µM; do not add the unit.

{"Compound": "CCc1nc(N)nc(N)c1-c1ccc(Cl)cc1 [PMN, pyrimethamine, reference compound]", "Observed Value": 126}

In the following, a different compound is considered.
// query Report CC50 at 24 h for `C/C(=N\NC(N)=S)c1c(O)c2cc([N+](=O)[O-])ccc2oc1=O` please.
// result 387

###

assay: Lipophilicity by reversed-phase TLC (RM); conditions: reverse phase-C18, DMSO/phosphate buffer pH 7.4 (70:30 vol/vol), RM = log[(1/Rf) – 1]
Measurement Label: Lipophilicity (RM)

{"Test Smiles": "CCNC(=S)N/N=C(\\C)c1c(O)c2cc([N+](=O)[O-])ccc2oc1=O", "Lipophilicity (RM)": 0.33}
{"Test Smiles": "C/C(=N\\NC(N)=S)c1cc2cc([N+](=O)[O-])ccc2oc1=O", "Lipophilicity (RM)": "−0.58"}
{"Test Smiles": "C/C(=N\\NC(=S)Nc1ccccc1)c1cc2cc([N+](=O)[O-])ccc2oc1=O", "Lipophilicity (RM)": 0.20}
{"Test Smiles": "CNC(=S)N/N=C(\\C)c1c(O)c2cc([N+](=O)[O-])ccc2oc1=O", "Lipophilicity (RM)": 0.13}
{"Test Smiles": "C/C(=N\\NC(N)=S)c1c(O)c2cc([N+](=O)[O-])ccc2oc1=O", "Lipophilicity (RM)": 0.00}

[P] CNC(=S)N/N=C(\C)c1cc2cc([N+](=O)[O-])ccc2oc1=O
[Q] C/C(=N\NC(=S)Nc1ccccc1)c1c(O)c2cc([N+](=O)[O-])ccc2oc1=O
// query Compare P and Q and name the one whose reported Lipophilicity (RM) is smaller. Output the label that corresponds to your choice.
// result P

###

experiment: Cyclic voltammetry, reduction potentials in DMSO (HDME, vs. Ag/AgCl); conditions: 2.00 V/s, cathodic peak IIc, nitro anion radical couple
Measurement Label: E(pIIc) (V)

{"Test Smiles": "C/C(=N\\NC(=S)Nc1ccccc1)c1cc2cc([N+](=O)[O-])ccc2oc1=O", "E(pIIc), V": "−0.94"}
{"Test Smiles": "CNC(=S)N/N=C(\\C)c1cc2cc([N+](=O)[O-])ccc2oc1=O", "E(pIIc), V": "−0.93"}
{"Test Smiles": "CNC(=S)N/N=C(\\C)c1c(O)c2cc([N+](=O)[O-])ccc2oc1=O", "E(pIIc), V": "−1.08"}
{"Test Smiles": "C/C(=N\\NC(=S)Nc1ccccc1)c1c(O)c2cc([N+](=O)[O-])ccc2oc1=O", "E(pIIc), V": "−1.09"}
{"Test Smiles": "CCNC(=S)N/N=C(\\C)c1c(O)c2cc([N+](=O)[O-])ccc2oc1=O", "E(pIIc), V": "−1.08"}

###

assay: Cyclic voltammetry, reduction potentials in DMSO (HDME, vs. Ag/AgCl); details: 2.00 V/s, anodic peak IIa
Measurement Label: E(pIIa) (V)

{"Test Smiles": "C/C(=N\\NC(N)=S)c1cc2cc([N+](=O)[O-])ccc2oc1=O", "Unit Annotation": "V", "E(pIIa)": "−0.90"}
{"Test Smiles": "C/C(=N\\NC(N)=S)c1c(O)c2cc([N+](=O)[O-])ccc2oc1=O", "Unit Annotation": "V", "E(pIIa)": "−0.98"}
{"Test Smiles": "CNC(=S)N/N=C(\\C)c1cc2cc([N+](=O)[O-])ccc2oc1=O", "Unit Annotation": "V", "E(pIIa)": "−0.87"}
{"Test Smiles": "C/C(=N\\NC(=S)Nc1ccccc1)c1c(O)c2cc([N+](=O)[O-])ccc2oc1=O", "Unit Annotation": "V", "E(pIIa)": "−1.01"}
{"Test Smiles": "CNC(=S)N/N=C(\\C)c1c(O)c2cc([N+](=O)[O-])ccc2oc1=O", "Unit Annotation": "V", "E(pIIa)": "−1.01"}
{"Test Smiles": "C/C(=N\\NC(=S)Nc1ccccc1)c1cc2cc([N+](=O)[O-])ccc2oc1=O", "Unit Annotation": "V", "E(pIIa)": "−0.86"}
{"Test Smiles": "CCNC(=S)N/N=C(\\C)c1c(O)c2cc([N+](=O)[O-])ccc2oc1=O", "Unit Annotation": "V", "E(pIIa)": "−1.00"}

###

assay: Cytotoxicity on cells (resazurin), EA.hy926; type: cell-based; conditions: human, EA.hy926 endothelial cells
Each entry below lists one item and its recorded CC50 at 24 h value.
The figure you give is taken to be in µM; do not add the unit.

{"Compound": "CCc1nc(N)nc(N)c1-c1ccc(Cl)cc1 [PMN, pyrimethamine, reference compound]", "Unit Annotation": "µM", "CC50 at 24 h": 288}

In the following, a different compound is considered.
// query Report CC50 at 24 h for CC1CS(=O)(=O)CCN1/N=C/c1ccc([N+](=O)[O-])o1 (stereo not drawn) [NFX, nifurtimox, reference compound] please.
// result 348
